Assay: NCI Yeast Anticancer Drug Screen. Data for the rad50EPP+ strain (AID 151);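 also: 0% = growth of vehicle-treated control cultures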
Details: S. cerevisiae rad50 mutant strain, at 1.2 µM, hits give high values
Method: Growth inhibition of yeast strains with defined genetic alterations is measured as a screen for potential anti-cancer activity. Selected strains with alterations in DNA damage repair or cell cycle control were exposed to compounds and growth inhibition was measured relative to vehicle treated controls. The strain used in this assay is rad50EPP+
This is part of a sample that, as a whole, favours compounds with a hit. Of some 79,000 tested, about 15% had one in any assay.
MEASURE: growth inhibition (%)
Dear colleague, please return just the value in %, with no unit written.

Consider the reported growth inhibition for these molecules:
Record summary for CC(C)(C)c1cc([N+](=O)[O-])cc([N+](=O)[O-])c1O : reported growth inhibition = -54

Record summary for N#Cc1cc(N(CCCl)CCCl)c([N+](=O)[O-])cc1[N+](=O)[O-] : reported growth inhibition = 15

More entries:
Record summary for COc1ccc(/C=C(/C)[N+](=O)[O-])cc1 : reported growth inhibition = 57

Record summary for Nc1nc(N)c(-c2ccc(Cl)c(Cl)c2)c(CP(Cl)(Cl)(Cl)Br)n1 : reported growth inhibition = -2

Record summary for NC1=NCC(c2ccc(Cl)cc2)O1 (stereo not drawn) : reported growth inhibition = -2

Record summary for COc1cccc2c1C(=O)c1c(O)c3c(c(O)c1C2=O)C[C@@](O)(C(C)=O)C[C@@H]3OC1CC(N)C(OC2CC(O)C(O)C(C)O2)C(C)O1 (stereo partly drawn) : reported growth inhibition = 11

Record summary for Nc1nc(N)c2c(Cl)c(CNc3ccc(C(=O)NC(CC(=O)O)C(=O)O)cc3)ccc2n1 (stereo not drawn) : reported growth inhibition = 10

Record summary for Cc1c(N)nc([C@H](CC(N)=O)NC[C@H](N)C(N)=O)nc1C(=O)N[C@H](C(=O)N[C@H](C)[C@@H](O)[C@H](C)C(=O)N[C@H](C(=O)NCCc1nc(-c2nc(C(=O)NCCC[S+](C)C)cs2)cs1)[C@@H](C)O)C(OC1OC(CO)C(O)C(O)C1OC1OC(CO)C(O)C(OC(N)=O)C1O)c1cnc[nH]1 (stereo partly drawn) : reported growth inhibition = 0

====

assay: NCI Yeast Anticancer Drug Screen. Data for the rad52 strain (AID 147);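 also: 0% = growth of vehicle-treated control cultures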; conditions: S. cerevisiae rad52 mutant growth inhibition; at 11.0 µM; hits give high values
Compounds without any hit were thinned out: in the full panel of roughly 79,000, 15% have a hit.
MEASURE: growth inhibition (%)
Dear colleague, please return just the value in %, with no unit written.

Consider the reported growth inhibition for these compounds:
Record summary for CO[C@H](/C(C)=C/C=C/C(C)=C/c1coc(C)n1)[C@H](C)[C@H]1C[C@@H](O)[C@@]2(C)O[C@H]2/C=C/[C@@H](C)[C@@H]2C[C@@H](CC(=O)O2)C[C@H]2O[C@@H]2C(=O)O1 : reported growth inhibition = 14

Record summary for CC1(C)N=C(N)N=C(N)N1c1cccc(N)c1.[Sn] : reported growth inhibition = 19

Record summary for Nc1ccc(Cl)cc1C(=O)c1ccccc1 : reported growth inhibition = -15

Record summary for CCC1(OC(=O)CN)C(=O)OCc2c1cc1n(c2=O)Cc2cc3ccccc3nc2-1 (centres undefined) : reported growth inhibition = 96

Record summary for Nc1nnc(N)n1-n1c(N)nnc1N : reported growth inhibition = -1

More entries:
Record summary for Cc1ccc2nc3sc(=O)sc3nc2c1 : reported growth inhibition = 99

Record summary for O=[N+]([O-])O.[NH-]C1CCCCC1[NH-].[NH-]C1CCCCC1[NH-].[NH-]C1CCCCC1[NH-].[OH-].[OH-].[OH-].[Pt+4].[Pt+4].[Pt+4] (centres undefined) : reported growth inhibition = -51

Record summary for C/C(=N\O)c1ccc2ccc3ccccc3c2c1 : reported growth inhibition = 49

Record summary for Oc1cccc2cccnc12 : reported growth inhibition = 93

====

Experiment: NCI Yeast Anticancer Drug Screen. Data for the wt1 strain (AID 149);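 also: 0% = growth of vehicle-treated wt1 cultures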
Settings: S. cerevisiae wt1 strain (SPY 50644) growth inhibition; at 11.0 µM; hits give high values
Description: Growth inhibition of yeast strains with defined genetic alterations is measured as a screen for potential anti-cancer activity. Selected strains with alterations in DNA damage repair or cell cycle control were exposed to compounds and growth inhibition was measured relative to vehicle treated controls. The strain used in this assay is wt1
The panel holds about 79,000 compounds, 15% with a hit somewhere; the sample as a whole holds those more often.
growth inhibition values by entry
Dear colleague, please return just the value in %, with no unit written.

Consider the reported growth inhibition for these molecules:
Record summary for CC[C@@]1(O)C[C@H](OC2CC(N(C)C)C(O)C(C)O2)c2c(O)c3c(c(O)c2[C@H]1OC1CC(N(C)C)C(O)C(C)O1)C(=O)c1cccc(O)c1C3=O (stereo not given in full) : reported growth inhibition = 7

Record summary for c1ccc(N=c2nc(N3CCOCC3)ss2)cc1 : reported growth inhibition = 15

Record summary for CNCC(O)c1ccc(O)c(O)c1.[Pt].c1ccc([PH+](c2ccccc2)c2ccccc2)cc1.c1ccc([PH+](c2ccccc2)c2ccccc2)cc1 : reported growth inhibition = -2

Record summary for CCCCCCCCCC[Se]C#N : reported growth inhibition = -3

Record summary for COC(COC(=O)N1CCN(C=O)CC1)C1=C(N2CC2)C(=O)C(C)=C(N2CC2)C1=O (stereo not given) : reported growth inhibition = 22

More entries:
Record summary for Oc1ccc(Cl)cc1Cc1ccccc1 : reported growth inhibition = 60

Record summary for Cc1c([N+](=O)[O-])oc2ccc3ccccc3c12 : reported growth inhibition = 4

Record summary for Oc1c(Br)cc(Br)cc1Br : reported growth inhibition = 2

Record summary for O=c1oc2ccccc2c(O)c1C(c1ccc2ccccc2c1)c1c(O)c2ccccc2oc1=O : reported growth inhibition = 1

Record summary for O=[N+]([O-])c1ccc(N2CCC(CCCC3CCN(c4ccc([N+](=O)[O-])cc4[N+](=O)[O-])CC3)CC2)c([N+](=O)[O-])c1 : reported growth inhibition = 5

====

experiment: NCI Yeast Anticancer Drug Screen. Data for the cln2 rad14 strain (AID 165);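 also: 0% = growth equal to vehicle treated cultures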; conditions: S. cerevisiae cln2 rad14 strain, at 50.0 µM, hits give high values
The panel holds about 79,000 compounds, 15% with a hit somewhere; the sample as a whole holds those more often.
growth inhibition values by entry
Dear colleague, please return just the value in %, with no unit written.

Consider the reported growth inhibition for these compounds:
Record summary for CC[C@@]1(O)C[C@H](OC2CC(N(C)C)C(O)C(C)O2)c2c(O)c3c(c(O)c2[C@H]1OC1CC(N(C)C)C(O)C(C)O1)C(=O)c1cccc(O)c1C3=O (some centres undefined) : reported growth inhibition = 75.8

Record summary for COc1c(O)c2c(c3cc(C(=O)N4CCc5c4c(O)c(OC)c4[nH]c(C(=O)N6CC7CC78C6=CC(=O)c6[nH]cc(C)c68)cc54)[nH]c13)CCN2C(N)=O (centres undefined) : reported growth inhibition = 89

Record summary for CNC(=O)Oc1ccccc1/C=N\Sc1ccc(Cl)cc1 : reported growth inhibition = 82.8

More entries:
Record summary for COc1ccc(Br)cc1/C=C/[N+](=O)[O-] : reported growth inhibition = 77.8

====

test: NCI Yeast Anticancer Drug Screen. Data for the rad50 strain (AID 155);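 also: 0% = growth of vehicle-only cultures of the same strain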; details: S. cerevisiae rad50 strain growth inhibition; at 100.0 µM
The panel holds about 79,000 compounds, 15% with a hit somewhere; the sample as a whole holds those more often. Active and inactive are the calls of the source. Cut-off read from the data, not from the text of the source: active = growth inhibition above about 70%; inactive = the rest.
Classes to choose from: active, inactive

Data request: Call for entry CCNCC(=O)O[C@]1(CC)C(=O)OCc2c1cc1n(c2=O)Cc2cc3ccccc3nc2-1 :
Data returned: inactive

Data request: Call for entry O=C1C=CC(=O)C1(Br)Br :
Data returned: active

Data request: Call for entry CC1CN1C1=C(Cl)C(=O)C(N2CC2C)=C(Cl)C1=O (stereo not given) :
Data returned: active

Data request: Call for entry C=C[C@H]1CN2CC[C@H]1C[C@@H]2[C@@H](O)c1ccnc2ccccc12 :
Data returned: inactive

Data request: Call for entry C=CC[N+]12CN3CN(CN(C3)C1)C2 :
Data returned: inactive

More entries:
Data request: Call for entry O=[N+]([O-])c1oc2ccc3ccccc3c2c1CCO :
Data returned: active

Data request: Call for entry O=C(/C=C(\c1ccccc1)N1CC1)c1ccccc1 :
Data returned: active

Data request: Call for entry O=[N+]([O-])c1ccc(N2CCC(CCCC3CCN(c4ccc([N+](=O)[O-])cc4[N+](=O)[O-])CC3)CC2)c([N+](=O)[O-])c1 :
Data returned: inactive

Data request: Call for entry c1c(N2CCOCC2)ssc1=[N+]1CCOCC1 :
Data returned: inactive

Data request: Call for entry O=P(CCCCP(=O)(c1ccccc1)c1ccccc1)(c1ccccc1)c1ccccc1.[Cl][Sn]([Cl])([c]1ccccc1)[c]1ccccc1 :
Data returned: active

====

assay: NCI Yeast Anticancer Drug Screen. Data for the cln2 rad14 strain (AID 165);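 also: 0% = growth equal to vehicle treated cultures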; details: S. cerevisiae cln2 rad14 strain, at 50.0 µM (retest, dose inferred, filed as 5.0)
Compounds without any hit were thinned out: in the full panel of roughly 79,000, 15% have a hit. Activity calls are given as the source filed them. No stated cut-off is given here; in the data, active means growth inhibition above about 70%; inactive means the rest.
Classes to choose from: active, inactive

Known results for compounds:
Data request: Call for entry COc1cc(C=Nc2cc(Br)c(OC)c(Br)c2)ccc1N(CCCl)CCCl :
Data returned: inactive

Data request: Call for entry CCC[CH2][Sn]([CH2]CCC)([S]C#N)[S]C#N :
Data returned: active

Data request: Call for entry CCC1(O)C(=O)OCc2c1cc1n(c2=O)Cc2cc3ccc(C#N)cc3nc2-1 (stereo not given) :
Data returned: inactive

Data request: Call for entry Nc1nc(N)c2c(Cl)c(CNc3ccc(C(=O)NC(CC(=O)O)C(=O)O)cc3)ccc2n1 (stereo not given) :
Data returned: inactive

Data request: Call for entry Sc1ccc(Cl)cc1 :
Data returned: inactive

More entries:
Data request: Call for entry N=C(N)c1ccccc1 :
Data returned: inactive

Data request: Call for entry CCOC(=O)C1=C(C(=O)OCC)C2(c3ccccc3)N(O1)c1ccccc1C2(C)C (stereo not given) :
Data returned: inactive

Data request: Call for entry CCC[CH2][Sn][Cl] :
Data returned: active

Data request: Call for entry Cc1cc(C)[n+](CCOc2ccc(/C(=C(/Cl)c3ccccc3)c3ccccc3)cc2)c(C)c1 :
Data returned: active

Cited source for all entries: PubChem BioAssay (NCI)
